Collected pEC50 values appear next to each entry.
Tested on: H3K27me3 mark in HeLa cells
Assay: H3K27me3 Alpha Hela Assay (AlphaLISA)
Assay type: cell-based
Details: Homo sapiens, 72 hrs, read-out: H3K27me3_Alpha_HeLa_ (EC50)
pEC50: −log10 of the molar value.

Below are worked cases with known answers.
• COCCN1CCC(C(C)n2c(C)c(C(=O)NCc3c(OC)cc(C)[nH]c3=O)c3ccccc32)CC1 (single isomer, unassigned) = 5.70 to 6.40
• CCC(C)n1c(C)c(C(=O)NCc2c(OC)cc(C)[nH]c2=O)c2ccc(-c3ccc(N4CCNCC4)nc3)cc21 (racemic) = 5.00 to 5.70
• CCS(=O)(=O)N1CCC(C(C)n2c(C)c(C(=O)NCc3c(C)cc(C)[nH]c3=O)c3ccccc32)CC1 (single isomer, unassigned) = > 6.40
• Cc1cc(OC(F)F)c(CNC(=O)c2c(C)n(C(C)C3CCN(S(C)(=O)=O)CC3)c3ccccc23)c(=O)[nH]1 (single isomer, unassigned) = > 6.40
• COc1cc(C)[nH]c(=O)c1CNC(=O)c1c(C)n(C(C)C2CCN(CCF)CC2)c2ccccc12 (single isomer, unassigned) = > 6.40
• COc1cc(C)[nH]c(=O)c1CNC(=O)c1c(C)n(C(C)C2CCN(c3ncccn3)CC2)c2ccccc12 (single isomer, unassigned) = > 6.40

Please look at the following molecule next.
**Q:** Given COc1cc(C)[nH]c(=O)c1CNC(=O)c1c(C)n(C(C)C2CN(S(C)(=O)=O)C2)c2ccccc12 (racemic) , state its recorded pEC50.
**A:** 5.70 to 6.40
